Biological target: T1, truncated EGFR (EGFRt) (human, UniProt P00533 334-668)
T1 construct: Expressed alone on T cells as the control without a CAR; also called huEGFRt; EGFRt marker
Assay: flow cytometry, biotinylated soluble FcγR + SA-PE on T cells
Experimental: Antibodies and Flow Cytometry. Fluorochrome-conjugated isotype controls, anti-CD3, anti-CD4, anti-CD8, anti-CD45 and streptavidin were obtained from BD Biosciences (San Jose, Calif.). Biotinylated anti-Fc was purchased from Jackson ImmunoResearch Laboratories, Inc. (West Grove, Pa.). […] The percentage of immunofluorescent cells were analyzed by a FACScalibur system (BD Biosciences), and the percentage of cells in a region of analysis were calculated using FCS Express V3 (De Novo Software, CA, USA). […]

# BINDER, binding result
records = [
    ("biotinylated soluble human FcγR2a (receptor, UniProt P12318 34-218, looked up, biotinylated, Bought reagent; also called huFcγR2a; Hu R2a) QAAAPPKAVLKLEPPWINVLQEDSVTLTCQGARSPESDSIQWFHNGNLIPTHTQPSYRFKANNNDSGEYTCQTGQTSLSDPVHLTVLSEWLVLQTPHLEFQEGETIMLRCHSWKDKPLVKVTFFQNGKSQKFSHLDPTFSIPQANHSHSGDYHCTGNIGYTLFSSKPVTITVQVPSMGSSSPMGI", "no binding"),
    ("biotinylated soluble murine FcγR2b (receptor, UniProt P08101 30-207, looked up, biotinylated, Bought reagent; also called muFcγR2b; Mu R2b) THDLPKAVVKLEPPWIQVLKEDTVTLTCEGTHNPGNSSTQWFHNGRSIRSQVQASYTFKATVNDSGEYRCQMEQTRLSDPVDLGVISDWLLLQTPQLVFLEGETITLRCHSWRNKLLNRISFFHNEKSVRYHHYSSNFSIPKANHSHSGDYYCKGSLGRTLHQSKPVTITVQGPKSSR", "no binding"),
    ("biotinylated soluble human FcγR2b (receptor, UniProt P31994 43-217, looked up, biotinylated, Bought reagent; also called huFcγR2b; Hu R2b) TPAAPPKAVLKLEPQWINVLQEDSVTLTCRGTHSPESDSIQWFHNGNLIPTHTQPSYRFKANNNDSGEYTCQTGQTSLSDPVHLTVLSEWLVLQTPHLEFQEGETIVLRCHSWKDKPLVKVTFFQNGKSKKFSRSDPNFSIPQANHSHSGDYHCTGNIGYTLYSSKPVTITVQAP", "no binding"),
    ("biotinylated soluble murine FcγR1 (receptor, UniProt P26151 25-297, looked up, biotinylated, Bought reagent; also called muFcγR1; Mu FcγR1) EVVNATKAVITLQPPWVSIFQKENVTLWCEGPHLPGDSSTQWFINGTAVQISTPSYSIPEASFQDSGEYRCQIGSSMPSDPVQLQIHNDWLLLQASRRVLTEGEPLALRCHGWKNKLVYNVVFYRNGKSFQFSSDSEVAILKTNLSHSGIYHCSGTGRHRYTSAGVSITVKELFTTPVLRASVSSPFPEGSLVTLNCETNLLLQRPGLQLHFSFYVGSKILEYRNTSSEYHIARAEREDAGFYWCEVATEDSSVLKRSPELELQVLGPQSSAP", "no binding"),
]
